molecular target: human SGLT2 (Homo sapiens (Human), UniProt P31639); test: Inhibitory effects on human SGLT2 activities (14C-AMG uptake, sodium-dependent glucose transport assay); details: CHO cells stably expressing hSGLT2, 37° C., 2 h, single determinations
Sequence (P31639 whole entry): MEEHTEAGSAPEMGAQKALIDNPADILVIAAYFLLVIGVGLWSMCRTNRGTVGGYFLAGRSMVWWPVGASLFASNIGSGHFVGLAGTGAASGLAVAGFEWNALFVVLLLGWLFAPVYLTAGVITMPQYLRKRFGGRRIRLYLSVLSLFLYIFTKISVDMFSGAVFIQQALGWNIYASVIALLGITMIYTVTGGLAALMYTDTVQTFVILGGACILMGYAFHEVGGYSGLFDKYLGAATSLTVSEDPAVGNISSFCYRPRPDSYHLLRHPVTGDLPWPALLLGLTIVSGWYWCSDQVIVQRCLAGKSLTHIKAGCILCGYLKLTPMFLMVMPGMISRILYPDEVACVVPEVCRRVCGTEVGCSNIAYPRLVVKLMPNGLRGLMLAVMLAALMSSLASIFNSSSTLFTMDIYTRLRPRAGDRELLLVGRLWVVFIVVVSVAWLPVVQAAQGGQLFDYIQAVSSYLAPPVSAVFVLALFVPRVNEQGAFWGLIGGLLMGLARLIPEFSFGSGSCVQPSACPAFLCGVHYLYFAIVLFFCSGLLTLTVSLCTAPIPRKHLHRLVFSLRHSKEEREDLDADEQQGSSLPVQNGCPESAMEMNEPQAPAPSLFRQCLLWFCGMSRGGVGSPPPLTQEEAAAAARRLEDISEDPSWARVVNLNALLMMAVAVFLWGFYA
// classify: if (IC50 < 2 nM) yes else no

Molecule	Classification
CCc1ccc(Cc2cc([C@@H]3O[C@H](CO)[C@@H](O)[C@H](O)[C@H]3O)c3c(c2Cl)C(C)(C)CO3)cc1 [Example E217]	yes
CCOc1ccc(Cc2cc([C@@H]3O[C@H](S(C)(=O)=O)[C@@H](O)[C@H](O)[C@H]3O)c3c(c2Cl)CC(C)O3)cc1 (stereo partly shown) [Example E146]	no
CC1Cc2cc(Cc3cc([C@@H]4O[C@H](CO)[C@@H](O)[C@H](O)[C@H]4O)ccc3Cl)ccc2O1 (stereo partly shown) [Example E065]	no
COc1ccc(Cc2cc([C@@H]3O[C@H](CO)[C@@H](O)[C@H](O)[C@H]3O)c3c(c2Cl)CC(C)S3)cc1 (stereo partly shown) [Example E142]	yes
OC[C@H]1O[C@@H](c2cc(Cc3ccc(C4CC4)cc3)c(Cl)c3c2OCO3)[C@H](O)[C@@H](O)[C@@H]1O [Example E158]	yes
CCOc1ccc(Cc2cc([C@@H]3O[C@H](CO)[C@@H](O)[C@H](O)[C@H]3O)c3c(c2Cl)OCC3=O)cc1 [Example E226]	no
CCOc1ccc(Cc2cc([C@@H]3O[C@H](CO)[C@@H](O)[C@H](O)[C@H]3O)c3c(c2Cl)OC(C)C3)cc1 (stereo partly shown) [Example E135]	yes
